These data points were gathered from patent US5314999A.

test system: X 63 (mice lymphoma B); assay: Toxicity on nucleated cells, X 63 mice lymphoma B; assay type: cell-based; details: 1 hour 30, trypan blue, 90 min, read-out: LD 50 (concentration leading to a mortality of 50%)
The entries below come with measured CC50 values attached.
READOUT LABEL: CC50 (µM)

1) C[C@@H]1[C@H](O)[C@@H](C)/C=C/C=C/C=C/C=C/C=C/C=C/C=C/[C@H](O[C@@H]2O[C@H](C)[C@@H](O)[C@H](NCC(=O)[C@@H](O)[C@@H]3OC(c4ccccc4)OC[C@H]3O)[C@@H]2O)C[C@@H]2O[C@](O)(C[C@@H](O)C[C@@H](O)[C@H](O)CC[C@@H](O)C[C@@H](O)CC(=O)O[C@H]1C)C[C@H](O)[C@H]2C(=O)O (stereo partly drawn) [AmB 20 G]	150
2) CC1OC[C@@H](O)[C@H]([C@H](O)C(=O)CN[C@@H]2[C@H](O)[C@H](O[C@H]3/C=C/C=C/C=C/C=C/C=C/C=C/C=C/[C@H](C)[C@@H](O)[C@@H](C)[C@H](C)OC(=O)C[C@H](O)C[C@H](O)CC[C@@H](O)[C@H](O)C[C@H](O)C[C@]4(O)C[C@H](O)[C@@H](C(=O)O)[C@H](C3)O4)O[C@H](C)[C@H]2O)O1 (stereo partly drawn) [AmB 22 G]	400
3) C[C@@H]1[C@H](O)[C@@H](C)/C=C/C=C/C=C/C=C/C=C/C=C/C=C/[C@H](O[C@@H]2O[C@H](C)[C@@H](O)[C@H](NCC3(O)O[C@H](C(N)=O)[C@@H](O)[C@@H]3O)[C@@H]2O)C[C@@H]2O[C@](O)(C[C@@H](O)C[C@@H](O)[C@H](O)CC[C@@H](O)C[C@@H](O)CC(=O)O[C@H]1C)C[C@H](O)[C@H]2C(=O)O (stereo partly drawn) [AmB 12 G]	500
